Some compounds, each annotated with its measured GI50 at 48 h.
protocol description: Cytotoxicity against human MCF7 cells assessed as cell growth inhibition after 48 hrs by cell titer-glo assay
Assay type: toxicity, cell-based
The figure you give is taken to be in µM; do not add the unit.

compound="CC1=C(C(=O)OCc2ccccc2)C(c2ccc(-c3ccccc3)cc2)NC(=O)N1Cc1ccc(-c2nnn[nH]2)cc1 (configuration not stated)" assay_metric="GI50 at 48 h" observed_value=160

Asked: Supply measured GI50 at 48 h of CC1=C(C(=O)OCc2ccccc2)C(c2ccc(-c3ccccc3C)cc2)NC(=O)N1Cc1ccc(-c2nnn[nH]2)cc1 (configuration not stated) in your reply.
Given back: 140

Asked: Supply measured GI50 at 48 h of CCCCCCN(C(=O)CCCCCN1C(=O)NC(c2ccc(-c3ccccc3)cc2)C(C(=O)OCc2ccccc2)=C1C)C(C(=O)NCCCC)c1ccc(OCC(=O)OC)c(C(=O)OC)c1 (configuration not stated) in your reply.
Given back: 6

Asked: Supply measured GI50 at 48 h of CC1=C(C(=O)OCc2ccccc2)C(c2ccc(-c3ccccc3C)cc2)NC(=S)N1Cc1ccc(-c2nnn[nH]2)cc1 (configuration not stated) in your reply.
Given back: 160

Asked: Supply measured GI50 at 48 h of CC1=C(C(=O)OCc2ccccc2)C(c2ccc(-c3ccccc3)cc2)NC(=S)N1Cc1ccc(-c2nnn[nH]2)cc1 (configuration not stated) in your reply.
Given back: 140

Asked: Supply measured GI50 at 48 h of CC1=C(C(=O)OCc2ccccc2)C(c2ccc(-c3ccccc3)cc2)N(Cc2ccc(-c3nnn[nH]3)cc2)C(=S)N1 (configuration not stated) in your reply.
Given back: 110

Asked: Supply measured GI50 at 48 h of CC1=C(C(=O)OCc2ccccc2)C(c2ccc(-c3ccccc3C)cc2)NC(=O)N1CCCCCc1nnn[nH]1 (configuration not stated) in your reply.
Given back: 72

###

Organism: Homo sapiens
protocol description: Inhibition of human Hsp70 expressed in Escherichia coli BL21(DE3) assessed as suppression of ATPase activity at 100 uM after 60 mins by TLC based steady state ATPase assay relative to control
Some compounds, each annotated with its measured fold change (FC).
Provide a numeric answer; units are not to be included.

compound="CC1=C(C(=O)OCc2ccccc2)C(c2ccc(-c3ccccc3)cc2)N(Cc2ccc(-c3nnn[nH]3)cc2)C(=O)N1 (stereo unspecified)" assay_metric="fold change (FC)" observed_value=1.2

Asked: Supply measured fold change (FC) of CC1=C(C(=O)OCc2ccccc2)C(c2ccc(-c3ccccc3C)cc2)N(Cc2ccc(-c3nnn[nH]3)cc2)C(=S)N1 (stereo unspecified) in your reply.
Given back: 1.3

Asked: Supply measured fold change (FC) of CC1=C(C(=O)OCc2ccccc2)C(c2ccc(-c3ccccc3)cc2)NC(=O)N1CCCCCc1nnn[nH]1 (stereo unspecified) in your reply.
Given back: 1.2

Asked: Supply measured fold change (FC) of CC1=C(C(=O)OCc2ccccc2)C(c2ccc(-c3ccccc3C)cc2)NC(=O)N1CCCCCc1nnn[nH]1 (stereo unspecified) in your reply.
Given back: 1.4

Asked: Supply measured fold change (FC) of CC1=C(C(=O)OCc2ccccc2)C(c2ccc(-c3ccccc3)cc2)N(Cc2ccc(-c3nnn[nH]3)cc2)C(=S)N1 (stereo unspecified) in your reply.
Given back: 1.7

Asked: Supply measured fold change (FC) of CC1=C(C(=O)OCc2ccccc2)C(c2ccc(-c3ccccc3)cc2)NC(=S)N1Cc1ccc(-c2nnn[nH]2)cc1 (stereo unspecified) in your reply.
Given back: 1.4

###

Some compounds, each annotated with its measured fold change (FC).
Test system: Homo sapiens
protocol description: Inhibition of human Hsp70 expressed in Escherichia coli BL21(DE3) assessed as suppression of Hdj2-activated ATPase activity at 100 uM dosed 15 mins after Hsp70 and Hdj2 pre-incubation and measured after 60 mins by TLC based steady state ATPase assay relative to control
Assay type: organism-based
Provide a numeric answer; units are not to be included.

compound="CC1=C(C(=O)OCc2ccccc2)C(c2ccc(-c3ccccc3C)cc2)NC(=S)N1Cc1ccc(-c2nnn[nH]2)cc1 (stereo not given)" observed_value=3.7

Asked: Supply measured fold change (FC) of CC1=C(C(=O)OCc2ccccc2)C(c2ccc(-c3ccccc3C)cc2)N(Cc2ccc(-c3nnn[nH]3)cc2)C(=S)N1 (stereo not given) in your reply.
Given back: 4.8

Asked: Supply measured fold change (FC) of CC1=C(C(=O)OCc2ccccc2)C(c2ccc(-c3ccccc3)cc2)NC(=O)N1Cc1ccc(-c2nnn[nH]2)cc1 (stereo not given) in your reply.
Given back: 5

Asked: Supply measured fold change (FC) of CC1=C(C(=O)OCc2ccccc2)C(c2ccc(-c3ccccc3)cc2)NC(=S)N1CCCCCc1nnn[nH]1 (stereo not given) in your reply.
Given back: 1.7

Asked: Supply measured fold change (FC) of CC1=C(C(=O)OCc2ccccc2)C(c2ccc(-c3ccccc3C)cc2)NC(=S)N1CCCCCc1nnn[nH]1 (stereo not given) in your reply.
Given back: 2.5

Asked: Supply measured fold change (FC) of CC1=C(C(=O)OCc2ccccc2)C(c2ccc(-c3ccccc3)cc2)N(Cc2ccc(-c3nnn[nH]3)cc2)C(=O)N1 (stereo not given) in your reply.
Given back: 5

Asked: Supply measured fold change (FC) of CC1=C(C(=O)OCc2ccccc2)C(c2ccc(-c3ccccc3)cc2)N(Cc2ccc(-c3nnn[nH]3)cc2)C(=S)N1 (stereo not given) in your reply.
Given back: 5.3

Asked: Supply measured fold change (FC) of CC1=C(C(=O)OCc2ccccc2)C(c2ccc(-c3ccccc3C)cc2)NC(=O)N1CCCCCc1nnn[nH]1 (stereo not given) in your reply.
Given back: 3

Asked: Supply measured fold change (FC) of CC1=C(C(=O)OCc2ccccc2)C(c2ccc(-c3ccccc3)cc2)NC(=O)N1CCCCCc1nnn[nH]1 (stereo not given) in your reply.
Given back: 1.3

Asked: Supply measured fold change (FC) of CC1=C(C(=O)OCc2ccccc2)C(c2ccc(-c3ccccc3)cc2)NC(=S)N1Cc1ccc(-c2nnn[nH]2)cc1 (stereo not given) in your reply.
Given back: 4.5

###

Some molecules, each annotated with its measured fold change (FC).
measured on: Large T antigen (Simian virus 40)
protocol description: Inhibition of ATPase activity of SV40 T antigen expressed in baculovirus at 10 uM by antibody affinity chromatography relative to control
measurement parameters: Betapolyomavirus macacae
Provide a numeric answer; units are not to be included.

// known answers, use as guide
molecule="CC1=C(C(=O)OCc2ccccc2)C(c2ccc(-c3ccccc3)cc2)NC(=O)N1Cc1ccc(-c2nnn[nH]2)cc1 (stereo not given)" observed_value=2
molecule="CC1=C(C(=O)OCc2ccccc2)C(c2ccc(-c3ccccc3C)cc2)N(Cc2ccc(-c3nnn[nH]3)cc2)C(=S)N1 (stereo not given)" observed_value=7.5
molecule="CC1=C(C(=O)OCc2ccccc2)C(c2ccc(-c3ccccc3)cc2)NC(=S)N1CCCCCC(=O)O (stereo not given)" observed_value=1.5
molecule="CC1=C(C(=O)OCc2ccccc2)C(c2ccc(-c3ccccc3C)cc2)NC(=S)N1CCCCCc1nnn[nH]1 (stereo not given)" observed_value=4.7

Now examine the next entry.
Asked: Supply measured fold change (FC) of CC1=C(C(=O)OCc2ccccc2)C(c2ccc(-c3ccccc3C)cc2)NC(=O)N1CCCCCc1nnn[nH]1 (stereo not given) in your reply.
Given back: 2.1

###

Some compounds, each annotated with its measured EC50.
System: BK polyomavirus
protocol description: Antiviral activity against BK polyomavirus Gardner infected in human HFF cells assessed as reduction in DNA copy number after 7 days by PCR analysis
Format: functional, cell-based
measurement parameters: Betapolyomavirus hominis, 168 h
The figure you give is taken to be in nM; do not add the unit.

// known answers, use as guide
compound="CC1=C(C(=O)OCc2ccccc2)C(c2ccc(-c3ccccc3)cc2)NC(=O)N1CCCCCc1nnn[nH]1 (centres undefined)" measured_on="BK polyomavirus" observed_value=3900
compound=Nc1ccn(C[C@@H](CO)OCP(=O)(O)O)c(=O)n1.O.O measured_on="BK polyomavirus" observed_value=1100

Asked: Supply measured EC50 of CC1=C(C(=O)OCc2ccccc2)C(c2ccc(-c3ccccc3C)cc2)NC(=O)N1Cc1ccc(-c2nnn[nH]2)cc1 (centres undefined) in your reply.
Given back: 1700

Asked: Supply measured EC50 of CC1=C(C(=O)OCc2ccccc2)C(c2ccc(-c3ccccc3)cc2)N(Cc2ccc(-c3nnn[nH]3)cc2)C(=S)N1 (centres undefined) in your reply.
Given back: 1800
